The reader will find reported IC50 values listed item by item below.
system: U2OS; assay: cells; design: Inhibition of MCM4 chromatin loading (replication licensing) in synchronised U2OS cells, immunofluorescence high-content imaging; conditions: Homo sapiens, 8 h, MCM4 DNA binding
Output spec: scalar in µM, unitless text.

CN(C)CCNc1nc(-c2ccncc2)nc2ccccc12 ... 59
Cc1c(C)n(-c2nc3ccccc3s2)c2ncnc(NCCN(C)C)c12 ... 7
CCN(CC)CCNc1nc(-c2cccc(Cl)c2)nc2ccccc12 ... 32
CN(C)CCNc1cc(-c2cccs2)nc2ccccc12 ... 22

Entry CN(C)CCNc1cc(-c2ccco2)nc2ccccc12 — recorded IC50 = 8
